biological target: Recombinant human cathepsin S (CatS) (Homo sapiens, UniProt P25774); construct: made in house; experiment: Recombinant human cathepsin S (CatS) fluorogenic substrate inhibition assay; format: biochemical; settings: average of results obtained; substrate Z-Valine-Valine-Arginine-AMC 10 μM, pH 5.0; read-out: CatS IC50
Sequence (P25774 115-331): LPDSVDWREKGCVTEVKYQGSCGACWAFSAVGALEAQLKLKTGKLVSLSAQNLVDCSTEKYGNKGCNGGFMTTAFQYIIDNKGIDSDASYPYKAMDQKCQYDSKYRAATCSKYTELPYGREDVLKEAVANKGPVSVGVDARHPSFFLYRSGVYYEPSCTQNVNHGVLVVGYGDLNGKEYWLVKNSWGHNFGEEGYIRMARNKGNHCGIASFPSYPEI
reported metric: pIC50
Hey, just a heads up that pIC50 is the negative log base 10 of the concentration in molar.

Examples with answers:
INSERT INTO assay_data (compound, reported_metric, reported_value) VALUES
  ('CS(=O)(=O)N1CCc2c(c(-c3ccc(C(F)(F)F)c(C(=O)Nc4ccccc4)c3)nn2CC(O)CN2CCCC2)C1 (stereo not drawn) [Example 192]', 'pIC50', 5.80),
  ('CS(=O)(=O)N1CCc2c(c(-c3ccc(Cl)c(CNC(=O)c4ccccc4)c3)nn2CC(O)CN2CCCCCC2)C1 (stereo not drawn) [Example 170]', 'pIC50', 6.25);

(Q) Which pIC50 reading was recorded for the compound CC(C)=CC(=O)NCc1cc(-c2nn(CC(O)CN3CCC(NS(C)(=O)=O)CC3)c3c2CN(S(C)(=O)=O)CC3)ccc1C(F)(F)F (stereo not drawn) [Example 269] ?
(A) 7.52
